- Assay Overview: Biodistribution of radiotracers in normal mice
- Type: in vivo, mouse
- Condition: normal male mice, 120 min
Reported Property: Biodistribution: Lung (% dose/g)
Just the number please, in % dose/g, no unit attached.

Endpoint output: Biodistribution: Lung of O=C(O)CCc1ccc(O)c(CN(CCN(CC(=O)O)Cc2cc(CCC(=O)NCCCCCC(=O)NCCCC[C@H](NC(=O)N[C@@H](CCC(=O)O)C(=O)O)C(=O)O)ccc2O)CC(=O)O)n1 [[^68Ga]4a, metal not drawn] . Value?
0.83

Field request: Biodistribution: Lung | item: O=C(O)CC[C@H](NC(=O)N[C@@H](CCCCNC(=O)CCCCCNC(=O)CCc1ccc2c(c1)C[N+]13CC[N+]45CC(=O)[O][68Ga-3]14([O]C(=O)C3)([O]2)[O]c1ccc(CCC(=O)NCCNC(=O)CN2CCN(CC(=O)O)CCN(CC(=O)O)CCN(CC(=O)O)CC2)cc1C5)C(=O)O)C(=O)O (stereo partly drawn) [[^68Ga]1g]
0.85

Reported Biodistribution: Lung for O=C(O)CCc1ccc2c(n1)C[N+]13CC[N+]45CC(=O)[O][68Ga-3]14([O]C(=O)C3)([O]2)[O]c1ccc(CCC(=O)NCCCCCC(=O)NCCCC[C@H](NC(=O)N[C@@H](CCC(=O)O)C(=O)O)C(=O)O)nc1C5 (stereo partly drawn) [[^68Ga]2] : what is it?
0.45

Which Biodistribution: Lung is listed for O=C(O)CCc1ccc2c(c1)C[N+]13CC[N+]45CC(=O)[O][68Ga-3]14([O]C(=O)C3)([O]2)[O]c1ccc(CCC(=O)NCCCCCC(=O)NCCCC[C@H](NC(=O)N[C@@H](CCC(=O)O)C(=O)O)C(=O)O)cc1C5 (stereo partly drawn) [[^68Ga]1a, reference compound] ?
0.77

Given O=C(O)CCc1ccc2c(c1)C[N+]13CC[N+]45CC(=O)[O][68Ga-3]14([O]C(=O)C3)([O]2)[O]c1ccc(CCC(=O)NCC(=O)N[C@@H](Cc2ccc(OCC(=O)N[C@@H](Cc3ccccc3)C(=O)NCCCC[C@H](NC(=O)N[C@@H](CCC(=O)O)C(=O)O)C(=O)O)cc2)C(=O)O)cc1C5 (stereo partly drawn) [[^68Ga]5b] , state its recorded Biodistribution: Lung.
0.61

I am curious: what Biodistribution: Lung value has been reported for O=C(O)CC[C@H](NC(=O)N[C@@H](CCCCNC(=O)CCCCCNC(=O)CCc1ccc2c(n1)C[N+]13CC[N+]45CC(=O)[O][68Ga-3]14([O]C(=O)C3)([O]2)[O]c1ccc(CCC(=O)NCCCCCC(=O)NCCCC[C@H](NC(=O)N[C@@H](CCC(=O)O)C(=O)O)C(=O)O)nc1C5)C(=O)O)C(=O)O (stereo partly drawn) [[^68Ga]3] ?
0.97

###

- Assay Overview: Biodistribution of radiotracers in normal mice
- Format: in vivo, mouse
- Condition: normal male mice, 30 min
Reported Property: Biodistribution: Heart (% dose/g)
Entry rule: numbers only, all in % dose/g.

What does the record list as Biodistribution: Heart for O=C(O)CC[C@H](NC(=O)N[C@@H](CCCCNC(=O)CCCCCNC(=O)CCc1ccc2c(c1)C[N+]13CC[N+]45CC(=O)[O][68Ga-3]14([O]C(=O)C3)([O]2)[O]c1ccc(CCC(=O)NCCNC(=O)CN2CCN(CC(=O)O)CCN(CC(=O)O)CCN(CC(=O)O)CC2)cc1C5)C(=O)O)C(=O)O (stereo partly drawn) [[^68Ga]1g] ?
0.49

Suppose we examine the molecule O=C(O)CC[C@H](NC(=O)N[C@@H](CCCCNC(=O)CCCCCNC(=O)CCc1ccc2c(n1)C[N+]13CC[N+]45CC(=O)[O][68Ga-3]14([O]C(=O)C3)([O]2)[O]c1ccc(CCC(=O)NCCCCCC(=O)NCCCC[C@H](NC(=O)N[C@@H](CCC(=O)O)C(=O)O)C(=O)O)nc1C5)C(=O)O)C(=O)O (stereo partly drawn) [[^68Ga]3] ; what Biodistribution: Heart value has been reported?
0.93

Using the record for O=C(O)CCc1ccc2c(c1)C[N+]13CC[N+]45CC(=O)[O][68Ga-3]14([O]C(=O)C3)([O]2)[O]c1ccc(CCC(=O)NCCCCCC(=O)NCCCC[C@H](NC(=O)N[C@@H](CCC(=O)O)C(=O)O)C(=O)O)cc1C5 (stereo partly drawn) [[^68Ga]1a, reference compound] , report its Biodistribution: Heart.
0.27

// Biodistribution: Heart lookup, key: O=C(O)CCc1ccc(O)c(CN(CCN(CC(=O)O)Cc2cc(CCC(=O)NCCCCCC(=O)NCCCC[C@H](NC(=O)N[C@@H](CCC(=O)O)C(=O)O)C(=O)O)ccc2O)CC(=O)O)n1 [[^68Ga]4a, metal not drawn]
0.56

Recorded Biodistribution: Heart for O=C(O)CCc1ccc2c(c1)C[N+]13CC[N+]45CC(=O)[O][68Ga-3]14([O]C(=O)C3)([O]2)[O]c1ccc(CCC(=O)NCC(=O)N[C@@H](Cc2ccc(OCC(=O)N[C@@H](Cc3ccccc3)C(=O)NCCCC[C@H](NC(=O)N[C@@H](CCC(=O)O)C(=O)O)C(=O)O)cc2)C(=O)O)cc1C5 (stereo partly drawn) [[^68Ga]5b] , please?
0.98

Could you tell me which Biodistribution: Heart is on file for O=C(O)CCc1ccc2c(n1)C[N+]13CC[N+]45CC(=O)[O][68Ga-3]14([O]C(=O)C3)([O]2)[O]c1ccc(CCC(=O)NCCCCCC(=O)NCCCC[C@H](NC(=O)N[C@@H](CCC(=O)O)C(=O)O)C(=O)O)nc1C5 (stereo partly drawn) [[^68Ga]2] ?
0.51

###

- Assay Overview: Biodistribution of radiotracers in normal mice
- Assay type: in vivo, mouse
- Condition: normal male mice, 60 min
Reported Property: Biodistribution: Spleen (% dose/g)
Give just the number in % dose/g; leave the unit off.

Entry O=C(O)CCc1ccc2c(c1)C[N+]13CC[N+]45CC(=O)[O][68Ga-3]14([O]C(=O)C3)([O]2)[O]c1ccc(CCC(=O)NCCCCCC(=O)NCCCC[C@H](NC(=O)N[C@@H](CCC(=O)O)C(=O)O)C(=O)O)cc1C5 (stereo partly drawn) [[^68Ga]1a, reference compound] has what Biodistribution: Spleen?
4.39

Give its Biodistribution: Spleen value. Item: C[C@H](NC(=O)CCc1ccc2c(c1)C[N+]13CC[N+]45CC(=O)[O][68Ga-3]41([O]C(=O)C3)([O]c1ccc(CCC(=O)NCCCCCC(=O)NCCCC[C@H](NC(=O)N[C@@H](CCC(=O)O)C(=O)O)C(=O)O)cc1C5)[O]2)C(=O)O (stereo partly drawn) [[^68Ga]1d]
5.11

Recorded Biodistribution: Spleen for O=C(O)CCc1ccc2c(n1)C[N+]13CC[N+]45CC(=O)[O][68Ga-3]14([O]C(=O)C3)([O]2)[O]c1ccc(CCC(=O)NCCCCCC(=O)NCCCC[C@H](NC(=O)N[C@@H](CCC(=O)O)C(=O)O)C(=O)O)nc1C5 (stereo partly drawn) [[^68Ga]2] , please?
0.84

What Biodistribution: Spleen value was documented for this molecule, O=C(O)CC[C@H](NC(=O)N[C@@H](CCCCNC(=O)CCCCCNC(=O)CCc1ccc2c(c1)C[N+]13CC[N+]45CC(=O)[O][68Ga-3]14([O]C(=O)C3)([O]2)[O]c1ccc(CCC(=O)NCCNC(=O)CN2CCN(CC(=O)O)CCN(CC(=O)O)CCN(CC(=O)O)CC2)cc1C5)C(=O)O)C(=O)O (stereo partly drawn) [[^68Ga]1g] ?
4.77

// Biodistribution: Spleen lookup, key: O=C(O)CC[C@H](NC(=O)CCc1ccc2c(c1)C[N+]13CC[N+]45CC(=O)[O][68Ga-3]41([O]C(=O)C3)([O]c1ccc(CCC(=O)NCCCCCC(=O)NCCCC[C@H](NC(=O)N[C@@H](CCC(=O)O)C(=O)O)C(=O)O)cc1C5)[O]2)C(=O)O (stereo partly drawn) [[^68Ga]1f]
2.98

Could you tell me which Biodistribution: Spleen is on file for O=C(O)CCc1ccc(O)c(CN(CCN(CC(=O)O)Cc2cc(CCC(=O)NCCCCCC(=O)NCCCC[C@H](NC(=O)N[C@@H](CCC(=O)O)C(=O)O)C(=O)O)ccc2O)CC(=O)O)n1 [[^68Ga]4a, metal not drawn] ?
2.83

###

- Assay Overview: Biodistribution of radiotracers in normal mice
- Assay type: in vivo, mouse
- Condition: normal male mice, 30 min
Reported Property: Biodistribution: Skin (% dose/g)
Give the value, in units of % dose/g, as a plain number.

Fill in the blank: the reported Biodistribution: Skin of O=C(O)CCc1ccc2c(n1)C[N+]13CC[N+]45CC(=O)[O][68Ga-3]14([O]C(=O)C3)([O]2)[O]c1ccc(CCC(=O)NCCCCCC(=O)NCCCC[C@H](NC(=O)N[C@@H](CCC(=O)O)C(=O)O)C(=O)O)nc1C5 (stereo partly drawn) [[^68Ga]2] is ____.
0.88

Returns the measured Biodistribution: Skin for the input compound. Input: O=C(O)CC[C@H](NC(=O)N[C@@H](CCCCNC(=O)CCCCCNC(=O)CCc1ccc2c(c1)C[N+]13CC[N+]45CC(=O)[O][68Ga-3]14([O]C(=O)C3)([O]2)[O]c1ccc(CCC(=O)NCCNC(=O)CN2CCN(CC(=O)O)CCN(CC(=O)O)CCN(CC(=O)O)CC2)cc1C5)C(=O)O)C(=O)O (stereo partly drawn) [[^68Ga]1g]
1.13

Quick one: Biodistribution: Skin of O=C(O)CCc1ccc2c(c1)C[N+]13CC[N+]45CC(=O)[O][68Ga-3]14([O]C(=O)C3)([O]2)[O]c1ccc(CCC(=O)NCC(=O)N[C@@H](Cc2ccc(OCC(=O)N[C@@H](Cc3ccccc3)C(=O)NCCCC[C@H](NC(=O)N[C@@H](CCC(=O)O)C(=O)O)C(=O)O)cc2)C(=O)O)cc1C5 (stereo partly drawn) [[^68Ga]5b] ?
1.14

If you can, please state the reported Biodistribution: Skin value of O=C(O)CCc1ccc2c(c1)C[N+]13CC[N+]45CC(=O)[O][68Ga-3]14([O]C(=O)C3)([O]2)[O]c1ccc(CCC(=O)NCCCCCC(=O)NCCCC[C@H](NC(=O)N[C@@H](CCC(=O)O)C(=O)O)C(=O)O)cc1C5 (stereo partly drawn) [[^68Ga]1a, reference compound] .
0.95

// lookup Biodistribution: Skin for O=C(O)CC[C@H](NC(=O)N[C@@H](CCCCNC(=O)CCCCCNC(=O)CCc1ccc2c(n1)C[N+]13CC[N+]45CC(=O)[O][68Ga-3]14([O]C(=O)C3)([O]2)[O]c1ccc(CCC(=O)NCCCCCC(=O)NCCCC[C@H](NC(=O)N[C@@H](CCC(=O)O)C(=O)O)C(=O)O)nc1C5)C(=O)O)C(=O)O (stereo partly drawn) [[^68Ga]3]
1.48

// Biodistribution: Skin lookup, key: O=C(O)CCc1ccc(O)c(CN(CCN(CC(=O)O)Cc2cc(CCC(=O)NCCCCCC(=O)NCCCC[C@H](NC(=O)N[C@@H](CCC(=O)O)C(=O)O)C(=O)O)ccc2O)CC(=O)O)n1 [[^68Ga]4a, metal not drawn]
0.99
